STUDY_SYSTEM: human IL-13 wild type (human, UniProt P35225 35-146)
Sequence (P35225 other isoform, or with tags, fused parts or gaps limits assumed): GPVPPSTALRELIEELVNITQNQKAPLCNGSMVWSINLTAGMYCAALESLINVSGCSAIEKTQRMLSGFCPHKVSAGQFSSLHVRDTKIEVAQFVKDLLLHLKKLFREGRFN
EXPERIMENT_DESCRIPTION: cell-based or functional assay
Assign 1 whenever Average IC50, IL-13-induced TARC production by A-549 cells does not fall below 0.1 nM; assign 0 whenever it does.

Task: Hello, I need to know if 5G1 (antibody, V domains shown) VH: QVQLQQSGAELARPGTSVKLSCKASGYTFTTYGVSWVKQRTGQGLEWIGEIYPGNYNTYYNEKFRGKATLTADKSSSTAYMQLSSLTSEDSAVYFCSRWRTSYFSDYGYFDYWGQGTTLTVSS VL: DVVMTQTPLSLPVSLGDQASISCRSSQSLVHSHGNTYLHWYLQKPGQSPKLLIYTVSNRFSGVPDRFSGSGSGTDFTLKISRVEAEDLGVYFCSQSTHVPYTFGGGTKLEIKR has measured Average IC50, IL-13-induced TARC production by A-549 cells not below 0.1 nM. Thanks!
Result: 0

Task: # repeat for 9C11 (antibody, V domains shown) VH: QVRLQQPGAELVRPGASVKLSCKASGYTFTSSWIHWVNQRPGQGLEWIGMIHPSDSETRLNQKFKDKATLTVDKSSSTAYMQLSSPTSEDSAVYYCASTATDFDYWGQGTTLTVSS VL: DVVLTQTPLSLPVNIGDQASISCRSTQTLLNSDGFTYLDWYLQKPGQSPQLLIYLVSNRFSGVPDRFSGSGSGTDFTLKISRVEAEDLGVYYCFQNNYLPLTFGAGTKLELKR
Result: 1

Task: Entry to check: 22D10 (antibody, V domains shown) VH: QVQLQQSGDDLVKPGASVKLSCKASGYTFTSYWINWIKQRPGQGLEWIGHIAPGSGETYDNEMFKDKAKLTVDTSSSTAYIHLSSLSSEDSAVYFCARGSFTFFYAMDYWGQGTSVTVSS VL: DVLMTQTPLSLPVSLGDQASISCRSSQNIVHSNGKTYLEWYLQRPGQSPKLLIYKVSNRFSGVPDRFSGSGSGTDFTLKISRVEAEDLGVYYCFQGSHVPYTFGGGTKLEIKR
Result: 1

Task: Param item: 1B6 (antibody, V domains shown) VH: QVQLKESGPGLVAPSQSLSITCTVSGFSLTGYGVNWVRQPPGKGLEWLGMIWGDERIDYNSALKSRLSITKDNSKSQVFLKMNSLQTDDTGRYFCARDGYFPYAMDYWGQGTSVTVSS VL: NIVLTQSPASLAVSLGQRATISCRASETVDSYGKSYLHWYQQKPGQPPKLLIYLASNLESGVPARFSGSGSRTDFTLIIDPVEADDAATYYCQQNNEGPRTFGGGTKLEIKR
Result: 1

Task: Ok, now 25C8 (antibody, V domains shown) VH: QVQLQQPGAELVRPGASVQLSCKASGYTFTSSWIHWVNQRPGQGLEWIGMIHPSDSETRLNQKFKDKATLTVDKSSSTAYMQLSSPTSEDSAVYYCASTATDFDYWGQGTTLTVSS VL: DVVLTQTPLSLPVNIGDQASISCKSTKSLLNSDGFTYLDWYLQKPGQSPQLLIYLVSNRFSGAPDRFSGSGSGTDFTLKISRVEAEDLGVYYCFQHNYLPLTFGAGTNLELKR
Result: 1

Source listed as patent US20110165066A1.
